Tested on: MDCK
assay-method-text: Inhibition of P-glycoprotein (unknown origin) expressed in MDCK cells assessed as ATP depletion at 100 uM by bioluminescence ATP assay
Format: cell-based
condition-set: Homo sapiens
The source made the active and inactive calls. No cut-off for these calls is given here.
readout-name: inhibition

COc1cc2c(cc1OC)CN(CCCCn1c3ccccc3c3ccccc31)CC2; Active
COc1cc2c(cc1OC)C(=O)N(CCCCn1c3ccccc3c3ccccc31)CC2; 30%
COc1cc2c(cc1OC)C(=O)N(CCCCc1cn(-c3ccc(F)cc3)c3ccccc13)CC2; inactive
COc1cc2c(cc1OC)CN(CCCC(=O)n1c3ccccc3c3ccccc31)CC2; Active
COc1cc2c(cc1OC)CN(CCCC1CCCc3c(OC)cccc31)CC2 (stereo not drawn); Active
COc1cc2c(cc1OC)CN(CCCCc1cn(-c3ccc(F)cc3)c3ccccc13)CC2; inactive
COc1cc2c(cc1OC)CN(C(=O)CCCc1cn(-c3ccc(F)cc3)c3ccccc13)CC2; Active
COc1cc2c(cc1OC)CN(C(=O)CCC1CCCc3c(OC)cccc31)CC2 (stereo not drawn); Active
